Target: T1, Monomeric 8-histidine tagged human EGFRvIII extracellular domain (human, UniProt P00533 298-645)
T1 construct: Analyte in all SPR assays; not shown: 8-histidine tag
Experiment: SPR, captured by anti-human Fc, 37 C
Procedure: Anti-EGFRvII mouse (m) antibody, m62G7, generated from hybridomas was sequenced and subcloned into suitable vectors for expression as murine-human chimeric antibodies. The CDRs of mouse antibody m62G7 were grafted onto human framework and expressed as human IgG1 recombinant antibody, h62G7. Affinity variants of h62G7 were made by introducing mutations in the CDRs of the heavy and light chains. […] Affinity of anti-EGFRvIII antibodies towards human EGFRvIII was measured at both 25° C. and 37° C.
Listing of entries alongside the reported kon.

binder | kon, M⁻¹ s⁻¹
h62G7-H14/L1-DV (antibody, V domains shown, Humanized, human IgG1 recombinant antibody) VH: QVQLVQSGAEVKKPGASVKVSCKASGYTFTDYTLHWVRQAPGQGLEWMGGIWPITGGTTYNQKFKGRVTMTRDTSTSTVYMELSSLRSEDTAVYYCARGEAEGSWGQGTLVTVSS VL: DVVMTQSPLSLPVTLGQPASISCKSSQSLLYSNDKTYTNWFQQRPGQSPRRLIYEVSKLDVGVPDRFSGSGSGTDFTLKISRVEAEDVGVYYCGQDTHFPLTFGGGTKVEIK | 66000
h62G7-H14/L6 (antibody, V domains shown, Human IgG1) VH: QVQLVQSGAEVKKPGASVKVSCKASGYTFTDYTLHWVRQAPGQGLEWMGGIWPITGGTTYNQKFKGRVTMTRDTSTSTVYMELSSLRSEDTAVYYCARGEAEGSWGQGTLVTVSS VL: DVVMTQSPLSLPVTLGQPASISCKSSQSLLYSNGKTYLNWFQQRPGQSPRRLIYQVSKLDSGVPDRFSGSGSGTDFTLKISRVEAEDVGVYYCGQDTHFPLTFGGGTKVEIK | 43000
h62G7-EQ/L1-DV (antibody, V domains shown, Human IgG1) VH: QVQLVQSGAEVKKPGASVKVSCKASGYTFTDYTLHWVRQAPGQGLEWMGGIWPITGGTTYNQKFKGRVTMTRDTSTSTVYMELSSLRSEDTAVYYCARGEAQGSWGQGTLVTVSS VL: DVVMTQSPLSLPVTLGQPASISCKSSQSLLYSNDKTYTNWFQQRPGQSPRRLIYEVSKLDVGVPDRFSGSGSGTDFTLKISRVEAEDVGVYYCGQDTHFPLTFGGGTKVEIK | 370000
h62G7-EQ/L6 (antibody, V domains shown, Humanized, human IgG1 recombinant antibody; also called h62G7-L6/EQ) VH: QVQLVQSGAEVKKPGASVKVSCKASGYTFTDYTLHWVRQAPGQGLEWMGGIWPITGGTTYNQKFKGRVTMTRDTSTSTVYMELSSLRSEDTAVYYCARGEAQGSWGQGTLVTVSS VL: DVVMTQSPLSLPVTLGQPASISCKSSQSLLYSNGKTYLNWFQQRPGQSPRRLIYQVSKLDSGVPDRFSGSGSGTDFTLKISRVEAEDVGVYYCGQDTHFPLTFGGGTKVEIK | 660000
